Here, each record is paired with measured self-cleavage data.
B1: HDV Ribozyme (parent)
chain: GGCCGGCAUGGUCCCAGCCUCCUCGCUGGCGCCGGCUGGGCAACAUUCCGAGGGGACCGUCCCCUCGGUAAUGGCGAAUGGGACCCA

variants of: B1; assay: self-cleavage, relative activity (ratio to wild type); higher = more cleavage; co-transcriptional

- Item Sequence: "GGCCGGGAUGGUCUCAGCCUCCUCGCUGGCGCCGGCUGGGCAACAUUCCGAGGGGACCGUCCCCUCGGUAAUGGCGAAUGGGACCCA"
  self-cleavage: 0.196
- Item Sequence: "GGCCGGCAUGGUCCCAGCCUCCUCGCUGGCGCCGGCUGGGCAACAUUCCGAGGGGACCGUCCCCUCGGUGAUGGCGAAUGGGACCCA"
  self-cleavage: 0.969
- Item Sequence: "GGCCGGCAUGGUCCCAGCCUCCUCGCUGGCGCCGGCUGGGCAACAUUCCGAGGGGACCCUCCCCUCGGUAAUGGGGAAUGGGACCCA"
  self-cleavage: 0.189
- Item Sequence: "GGCCGGCAUGGUCCCAGCCUCCUCGCUGGCGCCGGCUGGGCAACCUUCCGAGGCGACCGUCCCCUCGGUAAUGGCGAAUGGGACCCA"
  self-cleavage: 0.653
- Item Sequence: "GGCCGGCAUGGUCCCAGCCUCCUCGCUGGCUCCGGCUGGGCAACAUACCGAGGGGACCGUCCCCUCGGUAAUGGCGAAUGGGACCCA"
  self-cleavage: 0.406
- Item Sequence: "GUCCGGCAUGGUCCCAGCCUCCUCGCUGGCGCCGGCUGGGCAACAUUCCGAGGGGACCGUCCCCUCGGUAAUGGCGAAUGGGACCCA"
  self-cleavage: 0.0584
- Item Sequence: "GGCCGGCAUGGUCCCAGCCUCCUCGCUGGCGCCGGCUGGGCAACAUUCCGAGGGGACCGUCCCCUCAGUAAUGGCGAAUGGUACCCA"
  self-cleavage: 0.348
- Item Sequence: "GGCCGGCACGGUCCCAGCCUCCUCGCUGGCGCCGGCUGGGCAACAUUCCUAGGGGACCGUCCCCUCGGUAAUGGCGAAUGGGACCCA"
  self-cleavage: 1.02
- Item Sequence: "GGCCGGCCUGGUCCCAGCCUCCUCGCUGGCGCCGGCUGGGCAACAUUCCGAGGGGACCGUCCCCUGGGUAAUGGCGAAUGGGACCCA"
  self-cleavage: 0.997
- Item Sequence: "GGCCGGCAUGGUCCCAGCCUCCUCGCUGGUGCCGGCUUGGCAACAUUCCGAGGGGACCGUCCCCUCGGUAAUGGCGAAUGGGACCCA"
  self-cleavage: 0.262
- Item Sequence: "AGCCGGCAUGGUCCCAGCCUCCUCGCUGGCGCCGACUGGGCAACAUUCCGAGGGGACCGUCCCCUCGGUAAUGGCGAAUGGGACCCA"
  self-cleavage: 0.101
- Item Sequence: "AGCCGGCAUGGUCCCAGCCUCCUCGCUGGCGCCGGCUGGGCGACAUUCCGAGGGGACCGUCCCCUCGGUAAUGGCGAAUGGGACCCA"
  self-cleavage: 0.115
- Item Sequence: "GGCCGGCAUGGUCCCAGCCUCCUCGCUGGCGCCGGCUGGGCAACAUUCCGAGGGGACCGUCAUCUCGGUAAUGGCGAAUGGGACCCA"
  self-cleavage: 0.831
- Item Sequence: "GGCCGGCCUGGUCCCAGCCUCCUCGCUGGCGCCGGCUGGGCAACAUUCCGAGGGGACCCUCCCCUCGGUAAUGGCGAAUGGGACCCA"
  self-cleavage: 0.923
- Item Sequence: "GGCCGGCAUGGUCCCAGCCUCCUCGCUGGCGCCGGCUGGGCAACAUUCCGAGGGGACCGUACCCUCGGUAAUGACGAAUGGGACCCA"
  self-cleavage: 0.561
- Item Sequence: "GGCCGGCAUGGUCCCAGCCUCCUCGCUGGCGCCGGCUGGGCAACAUUCCCAGGGGACCGUCCCCUCGGUAAUGCCGAAUGGGACCCA"
  self-cleavage: 0.196
- Item Sequence: "GGCUGGCAUGGUCCCAGCCUCCUCGCUGGCGCCGGCUGGGCAACAUUCCGAUGGGACCGUCCCCUCGGUAAUGGCGAAUGGGACCCA"
  self-cleavage: 0.831
- Item Sequence: "GGCCGGCAUGGUCCCUGCCUCCUCGCUGGCGCCGGCUGGGCAACAUUCCGAGGGGACCGUCCCCUCGGUAAUGCCGAAUGGGACCCA"
  self-cleavage: 0.175
- Item Sequence: "GGCCCGCAUGGUCCCAGCCUCCUCGCUGGCGCCGGCUGGGCAACAUUCCGAGGGGACCGUCCCCUCGGUAAAGGCGAAUGGGACCCA"
  self-cleavage: 0.095
- Item Sequence: "GGCCGGCAUGGUCCCAGCCUCCUCGCUGGCGCCGGCUGGGCAACAUUCCGAGGGGACCGUCCCCUCGCUAAUGGCGAAUGGGACCUA"
  self-cleavage: 0.997
- Item Sequence: "GGACGGCAUGGUCCCAGCCUCCUCGCUGGCGCCGGCUGGGCAACAUUCCGAGGGGACCGUCCCCGCGGUAAUGGCGAAUGGGACCCA"
  self-cleavage: 0.718
- Item Sequence: "GGCCGGCAUGGUCCCAGCCUCCUCGCCGGCGCCGGCUGGGCAACAUUCCGAGGGGACCGUCCCCUCGGUAAUGGCGAAUGGGACUCA"
  self-cleavage: 1.04
- Item Sequence: "GGCCGGCAUGGUCCCAGCCUCCUCGCUGGCGCCGGCUGGGCAACAUUCCGAGGGGACCUUCCCCUCGGUAAUGGCGAAUGGGACCAA"
  self-cleavage: 0.855
- Item Sequence: "GGCUGGCAUGGUCCCAACCUCCUCGCUGGCGCCGGCUGGGCAACAUUCCGAGGGGACCGUCCCCUCGGUAAUGGCGAAUGGGACCCA"
  self-cleavage: 0.332
- Item Sequence: "GGCCGGCAUGGUCCCAGCCUCCUCGCUGGCGGCGGCUGGGCAACAUUCCGAGGGUACCGUCCCCUCGGUAAUGGCGAAUGGGACCCA"
  self-cleavage: 0.0911
- Item Sequence: "GGCCGGCAUGGUCCCAGCCGCCUCGCUGGGGCCGGCUGGGCAACAUUCCGAGGGGACCGUCCCCUCGGUAAUGGCGAAUGGGACCCA"
  self-cleavage: 0.0554
- Item Sequence: "GGCCGGCAUGGUCCCAGCCUCCUCGCUGGUGCCGGCUCGGCAACAUUCCGAGGGGACCGUCCCCUCGGUAAUGGCGAAUGGGACCCA"
  self-cleavage: 0
- Item Sequence: "GGCCGGCAAGGUCCCAGCCUCCUCGCUGGCGCCGGCUGGGCAACAUUCCGAGGGGACCGUCCCCUCGGUAAUGGCGAACGGGACCCA"
  self-cleavage: 0.237
- Item Sequence: "GGCCGGCAUGGUCCCAGCCUCCUCGCUGGCGCCGGCUGGGCAACAUUCCGAGGGGACCGUCCCCUAGGUAAUGGCCAAUGGGACCCA"
  self-cleavage: 0.976
- Item Sequence: "GGCCGGCAUGGUCCCAGCCUCCUCGCUGACGCCGGCUGGGCAACAUUCCGAGGGGACCGUCCCCUCGGUAAUGGCGAAUGGUACCCA"
  self-cleavage: 0.0911
- Item Sequence: "GGCCGGAAUGGUCCCAGCCUCCUCGCUGGCGCCGGCUGGGCAACAUUCCGAGGGGACCGUCCCCUCGGUAAUGGCGAAUGGGACUCA"
  self-cleavage: 0.807
- Item Sequence: "GGCCGGCAUGGUCCCAGCCUCCUCGCUGGCGCCGGCUGGGCAACAUUCCGACGGGACCGUCCCCUCGGUAAUGGCGAAUGGGACACA"
  self-cleavage: 0.969
- Item Sequence: "GGCCGGCAUGGUCCCAGCCUCCUCGCUGGCGCCGGCUGGGCAACAUUCCGGGGGGACCGUCCCCUCGGUAAUGACGAAUGGGACCCA"
  self-cleavage: 0.406
- Item Sequence: "GGCCGGCAUGGUCCCAGCCUCCUCGCUGGCGCCGGCUGGUCACCAUUCCGAGGGGACCGUCCCCUCGGUAAUGGCGAAUGGGACCCA"
  self-cleavage: 0.374
- Item Sequence: "GGCCGGCAUGGUCCCAGCCUGCUCGCUGGCGCCGGCUGGGCAACAUUCCGAGGGGACCGUCCCCUGGGUAAUGGCGAAUGGGACCCA"
  self-cleavage: 0
- Item Sequence: "GGCCGGCAUGGUCCCAGCCUCCUCGCUGGCGCCGGCUGGGCAACAUUCCGAGGGGACCGUCACCUCGGUUAUGGCGAAUGGGACCCA"
  self-cleavage: 0.955
- Item Sequence: "GGCCGGCAUGGUCCCAGCCCCCUCGCUGGCGCCGGCUAGGCAACAUUCCGAGGGGACCGUCCCCUCGGUAAUGGCGAAUGGGACCCA"
  self-cleavage: 0
- Item Sequence: "GGCCGGCAUGGUCCCAGCCUCCUCGCUGGCGCCGGCUGGACAACAUUCCGAGGGGGCCGUCCCCUCGGUAAUGGCGAAUGGGACCCA"
  self-cleavage: 1.11
- Item Sequence: "GGCCGCCAUGGUCCCAGCCUCCUCGCUGGCGCCGGCUGGGCAACAUUACGAGGGGACCGUCCCCUCGGUAAUGGCGAAUGGGACCCA"
  self-cleavage: 0.443
- Item Sequence: "GGCCGGCAUGGUCCCAGCCUCCUCGCUGGCCCCGGCUGGGCAACAUUCCGAGAGGACCGUCCCCUCGGUAAUGGCGAAUGGGACCCA"
  self-cleavage: 0.572
- Item Sequence: "GGCUGGCAUGGUCCCAGCCUCCUCGCUGGCGCCGGCUGGGCAACAUUCCGAGGGGACCGUCCCCUCGGUAAUGGCGAAAGGGACCCA"
  self-cleavage: 0.755
- Item Sequence: "GGCCGGCAUGGUCCCAGCCUCCUCGCUGGCGACGGCUGGGCAACAUUCCGAGGGGACCGUCCCCUCAGUAAUGGCGAAUGGGACCCA"
  self-cleavage: 0.211
- Item Sequence: "GGCCGGCAUGGUCCCAGCCUCCUUGCUGGCGCCGGCUGGGCAACAUUCCGAGGGGACCGUCCCCUCGGUAAUGGCGAAUGGGACCGA"
  self-cleavage: 0.577
- Item Sequence: "GACCGGCAUGGUCCCAGCCUCCUCGCUGGCGCCGUCUGGGCAACAUUCCGAGGGGACCGUCCCCUCGGUAAUGGCGAAUGGGACCCA"
  self-cleavage: 0.0602
- Item Sequence: "GGCCGGCUUGGUCCCAGCCUCCUCGUUGGCGCCGGCUGGGCAACAUUCCGAGGGGACCGUCCCCUCGGUAAUGGCGAAUGGGACCCA"
  self-cleavage: 0.86
- Item Sequence: "GGCCGGCAUGGUCCCAGCCUCCUCGCUGGCGCCGGCUGGGCAACAUUGCGAGGGGACCGUCCCCCCGGUAAUGGCGAAUGGGACCCA"
  self-cleavage: 0.931

Entry source: the RNAGym collection of RNA variant scans (doi:10.7554/elife.80360)
